Parameter: EC50. Scope: all listed entries.
# TGT: human α7 nAChR (Homo sapiens, UniProt P36544)
# Sequence (P36544 23-502): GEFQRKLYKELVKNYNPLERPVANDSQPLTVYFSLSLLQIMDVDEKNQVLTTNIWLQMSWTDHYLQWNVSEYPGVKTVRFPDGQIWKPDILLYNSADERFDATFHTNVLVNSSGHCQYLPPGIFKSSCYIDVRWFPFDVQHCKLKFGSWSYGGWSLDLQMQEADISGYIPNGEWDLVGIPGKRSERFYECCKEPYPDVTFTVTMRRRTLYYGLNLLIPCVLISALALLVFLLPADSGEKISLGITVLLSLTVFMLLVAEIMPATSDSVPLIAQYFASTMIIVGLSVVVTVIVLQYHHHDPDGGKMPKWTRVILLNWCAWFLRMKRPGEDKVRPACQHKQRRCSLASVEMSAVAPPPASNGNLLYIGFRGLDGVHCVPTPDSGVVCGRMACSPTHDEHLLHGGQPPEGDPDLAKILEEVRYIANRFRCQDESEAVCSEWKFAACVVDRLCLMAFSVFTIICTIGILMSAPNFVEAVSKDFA
# TEST_DETAILS: cell-based
# COND: EC50 of human α7nAChR(nM), HEK293T/17 cells transfected with human α7 nAChR; PNU-120596 added; relative to epibatidine 1 μM positive control
READOUT_NAME: EC50

>>> result("O=C(N[C@H]1CN2CCC1CC2)c1ccc(=O)n(-c2ccc(Cl)cc2)c1")
"> 1000 nM"
>>> result("CC(C)(C)c1ccc(-n2cc(C(=O)NC3CN4CCC3CC4)ccc2=O)c(Cl)c1 (stereo not drawn)")
"100 to 500 nM"
>>> result("CCc1ccc(-n2cc(C(=O)NC3CN4CCC3CC4)ccc2=O)c(SC)c1 (stereo not drawn)")
"< 100 nM"
>>> result("Cc1ccc(-n2cc(C(=O)NC3CN4CCC3CC4)ccc2=O)cc1 (stereo not drawn)")
"500 to 1000 nM"
>>> result("O=C(NC1CN2CCC1CC2)c1ccc(=O)n(-c2ccc(-c3ccccc3)cc2Cl)c1 (stereo not drawn)")
"100 to 500 nM"
>>> result("O=C(NC1CN2CCC1CC2)c1ccc(=O)n(-c2ccccc2SCc2ccccc2)c1 (stereo not drawn)")
"100 to 500 nM"
